Overview of recorded luminescence response compared to control (DMSO) for various compounds
Target: FGF14:Nav1.6 complex (Homo sapiens, UniProt Q92915)
Construct: FGF14 and the C-tail of Nav1.6 channels are fused to vectors expressing CLuc and NLuc luciferase reporter; expressed in transfected cells; host or cells: HEK293, transient transfection
Sequence (Q92915 1-252 isoform Q92915-2, one chain of several): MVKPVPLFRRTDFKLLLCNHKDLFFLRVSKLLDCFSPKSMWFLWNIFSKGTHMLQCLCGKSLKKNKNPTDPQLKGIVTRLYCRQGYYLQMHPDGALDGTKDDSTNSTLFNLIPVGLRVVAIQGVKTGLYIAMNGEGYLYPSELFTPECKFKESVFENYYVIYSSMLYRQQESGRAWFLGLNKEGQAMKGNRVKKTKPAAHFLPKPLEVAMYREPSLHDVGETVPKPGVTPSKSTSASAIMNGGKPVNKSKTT
Experiment: Split-luciferase complementation assay (LCA) in HEK293 cells expressing CLuc-FGF14 and CD4-Nav1.6-NLuc
Format: cell-based
Conditions: 50 μM, normalized to DMSO control
Procedure: Detailed methods for LCA can be found is known in the art. See e.g., Shavkunov A. S., et al., Methods in Molecular Biology 1278:497-514 (2015). Statistical values were calculated as mean and standard error of the mean (mean±SEM), unless otherwise specified. […] Dose-response modulation was determined by: y=START+(END−START)*x^n/(k^n+x^n) where k, Michaelis constant; n, cooperative sites; x, independent variable; y, dependable variable. […]
Residues, ends and D or L forms follow the SMILES beside them. *: point of attachment. Fmoc = O=C(OCC1c2ccccc2-c2ccccc21)*; Cbz = O=C(OCc1ccccc1)*; Boc = CC(C)(C)OC(=O)*
Experimental readout: luminescence response compared to control (DMSO) (%)

{"Compound": "CC(=O)N[C@@H](Cc1ccccc1)C(=O)N[C@@H](CC(C)C)C(=O)N[C@@H](CCCCNC(=O)OC(C)(C)C)C(N)=O [ZL0148, Ac-Phe-Leu-Lys(Boc)-NH2] (Ac-Phe-Leu-Lys(Boc)-NH2)", "Unit symbol": "%", "Observed result": 132}
{"Compound": "CC(=O)N[C@@H](Cc1ccccc1)C(=O)N[C@@H](CC(C)C)C(=O)N1CCC[C@H]1C(=O)N[C@@H](CCCCNC(=O)OCC1c2ccccc2-c2ccccc21)C(=O)O [ZL0182, Ac-Phe-Leu-Pro-Lys(Fmoc)-OH] (Ac-FLPK(Fmoc)-OH)", "Unit symbol": "%", "Observed result": 129}
{"Compound": "CC(C)C[C@H](NC(=O)[C@H](Cc1ccccc1)NC(=O)OCc1ccccc1)C(=O)N1CCC[C@H]1C(=O)N[C@@H](CCCCNC(=O)OC(C)(C)C)C(N)=O [ZL0181, Z-Phe-Leu-Pro-Lys(Boc)-NH2] (Cbz-FLPK(Boc)-NH2)", "Unit symbol": "%", "Observed result": 75}
{"Compound": "CC(C)C[C@H](NC(=O)[C@H](Cc1ccccc1)NC(=O)OCc1ccccc1)C(=O)N1CCC[C@H]1C(N)=O [ZL0141, Z-Phe-Leu-Pro-NH2] (Cbz-Phe-Leu-Pro-NH2)", "Unit symbol": "%", "Observed result": 103}
